Numbers sourced from ChEMBL document CHEMBL4673338.

Quick record: pIC50, Voltage-gated inwardly rectifying potassium channel KCNH2 (Homo sapiens).
pIC50: −log10 of the molar value.

Example entries and their recorded answers appear below.
O=C(Cc1cccc(OCCCC2CCNCC2)c1)Nc1nc(-c2c[nH]c3ncc(F)cc23)cs1 :: < 4.52
O=C(Cc1cccc(OCCCC2CCNCC2)c1)Nc1nc(-c2c[nH]c3nccc(F)c23)cs1 :: < 4.52

Okay, next one:
## Input Identify the measured pIC50 of CS(=O)(=O)Nc1cccc(CC(=O)Nc2nc(-c3c[nH]c4ncc(F)cc34)cs2)c1 for Voltage-gated inwardly rectifying potassium channel KCNH2 (Homo sapiens).
## Output < 4.52

----------
Test system: THP-1
Assay: Antimigratory activity against human THP-1 cells
Format: functional, cell-based
observedProperty: IC50
In your response, the unit should come after the numeric value.

CS(=O)(=O)Nc1cccc(CC(=O)Nc2nc(-c3c[nH]c4ncc(F)cc34)cs2)c1 :: 70 nM
O=C(Cc1cccc(OCCCC2CCNCC2)c1)Nc1nc(-c2c[nH]c3ncccc23)cs1 :: 20 nM
CS(=O)(=O)Nc1cccc(CC(=O)Nc2nc(-c3c[nH]c4ncc(Br)cc34)cs2)c1 :: 10000 nM

Okay, next one:
## Input Identify the measured IC50 of CN1CCN(CCCOc2cccc(CC(=O)Nc3nc(-c4c[nH]c5nccc(F)c45)cs3)c2)CC1 for THP-1.
## Output 400 nM
